src = patent US20220125947A1

# measurement target: Vg9/Vd2 TCR on SKW3_4 cells (UniProt Q99603)
# Sequence (Q99603 21-122, chain 1 of 2): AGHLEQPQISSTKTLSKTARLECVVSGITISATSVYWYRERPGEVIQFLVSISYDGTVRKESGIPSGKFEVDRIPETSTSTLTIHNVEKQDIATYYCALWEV
# Sequence (A0JD36 20-115, chain 2 of 2, further chain): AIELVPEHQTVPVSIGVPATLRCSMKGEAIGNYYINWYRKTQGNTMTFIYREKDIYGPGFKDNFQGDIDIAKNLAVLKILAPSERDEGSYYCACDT
# measurement protocol: flow cytometry, dose-response binding at 37° C. on SKW3_4 cells expressing Vg9/Vd2
Max. Activity (fold over background): recorded values
Could you keep your reply to the number by itself?

Some solved entries appear below for comparison.
binder | measured attribute | value
VG9B67 (antibody, human IgG1, kappa, V domains shown) VH: EVQLVESGGGLVKPGGSLRLSCAASGFTFSSYTMNWVRQAPGKGLEWVSSISSSSSYIDYAESVKGRFTISRDNAKNSLYLQMNSLRAEDTAVYYCARDGDILATIRGSFDYWGQGTTVTVSS VL: DIVMTQTPLSLPVTPGEPASISCRSSQSLLDSDAGNTYLDWYLQKPGQSPQLLIYTLSYRASGVPDRFSGSGSGTDFTLKISRVEAEDVAIYYCMQRIEFPITFGQGTKVEIKR | Max. Activity (fold over background) | 128
VG9B66 (antibody, human IgG1, kappa, V domains shown) VH: EVQLVESGGGLVKPGGSLRLSCAASGFTFSTYTMNWVRQAPGKGLEWVSSISSSSFYMDYADSVKGRFTISRDNAKNSLSLLMNSLRAEDTAVYYCARDGDIVATIRGSFDYWGQGTMVTVSS VL: EIVLTQSPSSLSTSVGDRVTITCRASQDITNFLAWYQQKPGKLPKLLIYTASTLQSGVPSRFSGSASGPDFTLTISSLQPEDVATYYCQKYNSAPFTFGPGTKVEIKR | Max. Activity (fold over background) | 33.9

input: In one line, give reported Max. Activity (fold over background) of the entry VG9B127 (antibody, human IgG1, kappa, V domains shown) VH: QVQLVESGGGLVKPGGSLRLSCTASGFTFGAYTMNWVRQAPGKGLEWVSSISSSSSYIDFAESVKGRFTISRDNAKNSLYLQMISLRAEDTAVYYCARDGDIVSTIRGSFDYWGQGALVTVSS VL: EIVMTQSPLSLPVTPGEPASISCRSSQSLLDSDDGNTYLDWYLQKPGQSPQLLIYTLSYRASGVPDRFSGSGSGTDFTLKISRVEAEDVGIYYCMQRIEFPITFGQGTKVEIKR .
output: 91.9
